- Species on record: Cavia porcellus
- assay protocol: Parasympatholytic activity was assessed from the ability to inhibit electrically stimulated contraction of isolated guinea pig ileum at 4 mg/L of base
- Assay type: functional

{"record smiles": "O=C(Nc1cc(CN2CCCC2)c(O)c(CN2CCCC2)c1)c1ccccc1", "Inhibition / %": 30}
{"record smiles": "C=C[C@H]1CN2CC[C@H]1C[C@@H]2[C@@H](O)c1ccnc2ccc(OC)cc12", "Inhibition / %": 62}
{"record smiles": "COc1ccc(C(=O)Nc2cc(CN3CCCC3)c(O)c(CN3CCCC3)c2)cc1", "Inhibition / %": 24}
{"record smiles": "Cl.Cl.O=C(NCc1cc(CN2CCCC2)c(O)c(CN2CCCC2)c1)c1ccccc1Cl", "Inhibition / %": 19}
{"record smiles": "Cl.Cl.O=C(Nc1cc(CN2CCCC2)c(O)c(CN2CCCC2)c1)c1cccc(Cl)c1", "Inhibition / %": 37}

* * *

- Species: Cavia porcellus
- assay protocol: Parasympatholytic activity was assessed from the ability to inhibit electrically stimulated contraction of isolated guinea pig ileum at 4 mg/L of base
- Assay type: functional
Please note: Inhibition exactly at 20% is N. Only values below 20% get Y.

{"compound": "CCN(CC)CCNC(=O)c1ccc(N)cc1 [PROCAINAMIDE]", "assigned class": "Y"}
{"compound": "O=C(Nc1cc(CN2CCCC2)c(O)c(CN2CCCC2)c1)c1ccc([N+](=O)[O-])cc1", "assigned class": "N"}
{"compound": "O=C(Cc1cccs1)Nc1cc(CN2CCCC2)c(O)c(CN2CCCC2)c1", "assigned class": "Y"}
{"compound": "Cc1ccc(C(=O)Nc2cc(CN3CCCC3)c(O)c(CN3CCCC3)c2)cc1", "assigned class": "N"}
{"compound": "O=C(Nc1cc(CN2CCCC2)c(O)c(CN2CCCC2)c1)c1ccc(Cl)cc1", "assigned class": "N"}

* * *

- Species: Cavia porcellus
- assay protocol: Parasympatholytic activity was assessed from the ability to inhibit electrically stimulated contraction of isolated guinea pig ileum at 4 mg/L of base
- Assay type: functional
Give Condition met when the value for Inhibition is at least 50%. Give Condition not met when it is less.

{"molecule": "Oc1c(CN2CCCC2)cc(Nc2ncnc3ccccc23)cc1CN1CCCC1 [CHANGROLIN]", "assigned class": "Condition not met"}
{"molecule": "Cl.Cl.O=C(Nc1cc(CN2CCCC2)c(O)c(CN2CCCC2)c1)c1ccc(Cl)cc1Cl", "assigned class": "Condition not met"}
{"molecule": "Cl.O=C(Nc1cc(CN2CCCC2)c(O)c(CN2CCCC2)c1)c1cccc(C(F)(F)F)c1", "assigned class": "Condition met"}
{"molecule": "CC(C)N(CCC(C(N)=O)(c1ccccc1)c1ccccn1)C(C)C (stereo not given) [DISOPYRAMIDE]", "assigned class": "Condition met"}

* * *

- Species: Cavia porcellus
- assay protocol: Parasympatholytic activity was assessed from the ability to inhibit electrically stimulated contraction of isolated guinea pig ileum at 4 mg/L of base
- Type: functional
assay endpoint: Inhibition (%)

{"record smiles": "O=C(Nc1cc(CN2CCCC2)c(O)c(CN2CCCC2)c1)c1cccs1", "readout units": "%", "value": 44}
{"record smiles": "Cl.Cl.O=C(Nc1cc(CN2CCCC2)c(O)c(CN2CCCC2)c1)c1ccccc1C(F)(F)F", "readout units": "%", "value": 0}
{"record smiles": "O=C(Nc1cc(CN2CCCC2)c(O)c(CN2CCCC2)c1)c1ccccc1Cl", "readout units": "%", "value": 0}
{"record smiles": "Cl.Cl.O=C(NCc1cc(CN2CCCC2)c(O)c(CN2CCCC2)c1)c1cccc(C(F)(F)F)c1", "readout units": "%", "value": 72}
{"record smiles": "Nc1ccc(C(=O)Nc2cc(CN3CCCC3)c(O)c(CN3CCCC3)c2)cc1", "readout units": "%", "value": 0}
{"record smiles": "Cl.Cl.O=C(Nc1cc(CN2CCCC2)c(O)c(CN2CCCC2)c1)c1c(Cl)cccc1Cl", "readout units": "%", "value": 14}
{"record smiles": "Cc1cccc(C(=O)Nc2cc(CN3CCCC3)c(O)c(CN3CCCC3)c2)c1.Cl.Cl", "readout units": "%", "value": 32}
{"record smiles": "Cc1ccccc1C(=O)Nc1cc(CN2CCCC2)c(O)c(CN2CCCC2)c1.Cl.Cl", "readout units": "%", "value": 9}
{"record smiles": "COc1cc(C(=O)Nc2cc(CN3CCCC3)c(O)c(CN3CCCC3)c2)cc(OC)c1OC.Cl.Cl", "readout units": "%", "value": 6}
{"record smiles": "COc1ccccc1C(=O)Nc1cc(CN2CCCC2)c(O)c(CN2CCCC2)c1.Cl.Cl", "readout units": "%", "value": 31}
{"record smiles": "O=C(Nc1cc(CN2CCCC2)c(O)c(CN2CCCC2)c1)c1ccc(C(F)(F)F)cc1", "readout units": "%", "value": 42}
{"record smiles": "Cl.Cl.O=C(NCc1cc(CN2CCCC2)c(O)c(CN2CCCC2)c1)c1ccc(Cl)cc1", "readout units": "%", "value": 56}
{"record smiles": "O=C(NCc1cc(CN2CCCC2)c(O)c(CN2CCCC2)c1)c1ccccc1", "readout units": "%", "value": 34}
{"record smiles": "Cc1cccc(C)c1C(=O)Nc1cc(CN2CCCC2)c(O)c(CN2CCCC2)c1.Cl.Cl", "readout units": "%", "value": 15}
{"record smiles": "Cl.Cl.O=C(NCc1cc(CN2CCCC2)c(O)c(CN2CCCC2)c1)c1cccc(Cl)c1", "readout units": "%", "value": 78}
{"record smiles": "Cl.Cl.O=C(NCc1cc(CN2CCCC2)c(O)c(CN2CCCC2)c1)c1ccccc1C(F)(F)F", "readout units": "%", "value": 8}
